# assay.system: T1, human CD1a expressed on cells (human, UniProt P06126 17-327; P61769 21-119)
# T1 construct: also called HEK - CD1a; C1R - CD1a
# assay.procedure: flow cytometry, MOLT4 cells, 3.16 µg/ml antibody
observation.type: Fluorescence Intensity Geomean (normalized to background) (fold over background)
Please respond with the number in fold over background and leave the unit unwritten.

Sample 116 (VR12117) (antibody, V domains shown, also called OX116) VH: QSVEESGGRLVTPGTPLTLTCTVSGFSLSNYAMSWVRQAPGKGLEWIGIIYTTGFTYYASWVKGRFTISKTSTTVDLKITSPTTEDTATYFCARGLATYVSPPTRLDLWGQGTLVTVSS VL: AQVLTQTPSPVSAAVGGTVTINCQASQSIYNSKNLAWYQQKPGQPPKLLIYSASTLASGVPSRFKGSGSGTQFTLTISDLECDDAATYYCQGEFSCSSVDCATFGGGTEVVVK — what was its Fluorescence Intensity Geomean (normalized to background)?
23.9

Now consider 110 (VR12112) (antibody, V domains shown, also called OX110; antibody 110) VH: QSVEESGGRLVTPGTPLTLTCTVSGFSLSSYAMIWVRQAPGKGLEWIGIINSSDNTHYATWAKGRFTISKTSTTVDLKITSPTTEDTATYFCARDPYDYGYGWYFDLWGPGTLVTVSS VL: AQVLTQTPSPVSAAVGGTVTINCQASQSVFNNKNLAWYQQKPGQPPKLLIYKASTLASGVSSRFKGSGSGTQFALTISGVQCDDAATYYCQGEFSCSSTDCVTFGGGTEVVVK .
22.6

For 111 (VR12113) (antibody, V domains shown, also called OX111) VH: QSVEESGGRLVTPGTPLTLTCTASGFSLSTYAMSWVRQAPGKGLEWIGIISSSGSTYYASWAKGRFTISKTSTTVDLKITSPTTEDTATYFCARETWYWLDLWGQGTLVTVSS VL: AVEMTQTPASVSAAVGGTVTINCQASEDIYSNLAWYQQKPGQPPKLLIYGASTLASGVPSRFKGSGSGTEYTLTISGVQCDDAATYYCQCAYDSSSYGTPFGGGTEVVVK then?
18.9
